systemName: UniProt O43614
Sequence (O43614 whole entry): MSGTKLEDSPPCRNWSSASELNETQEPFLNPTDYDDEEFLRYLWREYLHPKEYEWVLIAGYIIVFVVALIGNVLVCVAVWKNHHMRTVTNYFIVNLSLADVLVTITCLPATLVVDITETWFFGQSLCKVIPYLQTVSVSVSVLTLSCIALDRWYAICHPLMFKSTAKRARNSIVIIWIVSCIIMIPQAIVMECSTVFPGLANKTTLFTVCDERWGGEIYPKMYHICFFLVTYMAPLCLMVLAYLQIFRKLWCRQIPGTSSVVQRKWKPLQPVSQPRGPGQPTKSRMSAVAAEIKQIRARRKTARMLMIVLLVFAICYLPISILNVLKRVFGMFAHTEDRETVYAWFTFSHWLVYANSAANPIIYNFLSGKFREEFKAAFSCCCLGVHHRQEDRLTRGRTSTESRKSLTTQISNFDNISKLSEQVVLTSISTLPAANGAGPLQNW
testSummary: FLIPR Ca2+ Flux Assay
experimentalContext: 37 °C
IC50 values, listed per item
Write the number in nM without appending the unit.

smilesRepresentation	IC50, nM
C[C@@H]1CC[C@@H](Oc2cc(C#N)ccn2)CN1C(=O)c1ccccc1-n1nccn1	12
C[C@@H]1CC[C@@H](Oc2cc(C#N)ccn2)CN1C(=O)c1ccccc1-c1ncccn1	28

Attention now shifts to the item below.
## Task Answer with IC50 of Cc1nc(-c2ccccc2C(=O)N2C[C@H](Oc3cc(C#N)ccn3)CC[C@H]2C)no1 measured for UniProt O43614.
## Result 18
